Listing of recorded switch fluorescence ratio by entry.
# System: ATP;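 note: ATP exposure 15 min at 22 °C before imaging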
# assay_procedure: switch fluorescence ratio, 500 uM ATP over buffer (Cy3 cluster intensity, sum of 5 cycles each) (fold (ratio)); higher = stronger signal-on switching upon ATP binding; sequences stand for … in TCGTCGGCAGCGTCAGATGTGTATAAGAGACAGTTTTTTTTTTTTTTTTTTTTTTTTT…TC
# condition_notes: aptamer strand: ATP DNA aptamer (quencher-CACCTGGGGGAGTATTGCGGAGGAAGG + anchor), 100 nM annealed; ATP concentration: 500 uM
Answer as a number with no unit attached.

Quick one: give measured switch fluorescence ratio for TGTTAGGTAA
1.22

Quick one: give measured switch fluorescence ratio for TGTTTTATGG
0.987

Quick one: give measured switch fluorescence ratio for GGTGAGGCGC
0.985

Quick one: give measured switch fluorescence ratio for GTGGATGGAC
1.03

Quick one: give measured switch fluorescence ratio for AAGTGAGTAG
1

Quick one: give measured switch fluorescence ratio for AGGGTCATCT
1.01

Quick one: give measured switch fluorescence ratio for TGGGGTGCCA
0.98

Quick one: give measured switch fluorescence ratio for GAATGCGGAA
1.03

Quick one: give measured switch fluorescence ratio for CGGCGGCGGG
1.03

Quick one: give measured switch fluorescence ratio for ACTTGTGGCT
1.01

Quick one: give measured switch fluorescence ratio for TCGGATGCGT
1.03

Quick one: give measured switch fluorescence ratio for GTTAGTATTG
0.998

Quick one: give measured switch fluorescence ratio for TATACCGGTA
1.02

Quick one: give measured switch fluorescence ratio for AATGAGAGTG
1

Quick one: give measured switch fluorescence ratio for ACCATGACGG
1.04

Quick one: give measured switch fluorescence ratio for CATCCGTCCG
1.35
